Below, each of the variants is paired with its reported response value.
B1: Gal4AD-Rec104 [S. cerevisiae] / LexA-Rec102 [S. cerevisiae] (parent complex)
chain 1: MSIEEEDTNKITCTQDFLHQYFVTERVSIQFGLNNKTVKRINKDEFDKAVNCIMSWTNYPKPGLKRTASTYLLSNSFKKSATVSLPFILGDPVCMPKRVESNNNDTCLLYSDTLYDDPLIQRNDQAGDEIEDEFSFTLLRSEVNEIRPISSSSTAQILQSDYSALMYERQASNGSIFQFSSP
chain 2: MARDITFLTVFLESCGAVNNDEAGKLLSAWTSTVRIEGPESTDSNSLYIPLLPPGMLKIKLNFKMNDRLVTEEQELFTKLREIVGSSIRFWEEQLFYQVQDVSTIENHVILSLKCTILTDAQISTFISKPRELHTHAKGYPEIYYLSELSTTVNFFSKEGNYVEISQVIPHFNEYFSSLIVSQLEFEYPMVFSMISRLRLKWQQSSLAPISYALTSNSVLLPIMLNMIAQDKSSTTAYQILCRRRGPPIQNFQIFSLPAVTYNK

Variants of: B1
Test: Y2H β-galactosidase assay; parent: 0.97; read off a plot
metric-name: response

{"mutation-annotation": "chain 2 F11A", "value-measured": "~0.9 normalized β-gal units"}
{"mutation-annotation": "chain 2 F156A", "value-measured": "~1.5 normalized β-gal units"}
{"mutation-annotation": "chain 2 L8A", "value-measured": "~1.4 normalized β-gal units"}
{"mutation-annotation": "chain 2 S182A", "value-measured": "~0.62 normalized β-gal units"}
{"mutation-annotation": "chain 2 Q183A", "value-measured": "~0.01 normalized β-gal units"}
{"mutation-annotation": "chain 2 V10A", "value-measured": "~0.6 normalized β-gal units"}
{"mutation-annotation": "chain 2 L179A", "value-measured": "~0.1 normalized β-gal units"}
